# Tested on: MS2 coat protein
# MEASUREMENT_PROTOCOL: apparent KD of MS2 coat protein; designed switch direction (-1 OFF switch, 1 ON switch): -1; higher = weaker reporter binding
# CONDITION_NOTES: input ligand: none
QUANTITY: apparent KD of MS2 coat protein (nM)
Respond with the bare value in nM.

Identify the reported apparent KD of MS2 coat protein for the following entry. GUACGGUAAGGAUAUUGGAGGCCAAAGCACGAGUAGUACUCUAAGAAGGUACAUGAGGAUCACCCAUGUACGAG [Eternabot (L2) Solution 63] (Eterna round: R97, puzzle: Exclusion 4)
16.9

Identify the reported apparent KD of MS2 coat protein for the following entry. AGACGUGCAGUGCUCCUCCACAUGAGGAUCACCCAUGUCACUGAGGAUAUCUGCAGGUAACUGCUGGAGAAGGCAGAAAGAAUG [Atrien] (Eterna round: R96, puzzle: Exclusion NG 3)
29.5

Identify the reported apparent KD of MS2 coat protein for the following entry. ACCAAUGCAGGAUAUACAUGAGGAUCACCCAUGUAUAACCUACAUAGAUGAUCAUCAUGUAGAAGGGCAAUGGA [EX3 229: Super Stable 29] (Eterna round: R96, puzzle: Exclusion 3)
14.6

Identify the reported apparent KD of MS2 coat protein for the following entry. AUAAUGUCAGGAUAUCAGUCGUACAGCCUCGGCUGUACGACUGAGAAGGGACAUGAGGAUCACCCAUGUGGUCA [E4/6-A2] (Eterna round: R97, puzzle: Exclusion 4)
155

Identify the reported apparent KD of MS2 coat protein for the following entry. ACAAGCUUUUUCAUAUCUAACAUGAGGAUCACCCAUGUUUAAGCAAUUAUGUUUGGGCUCUUUUGAGCUCGUCUUAU [JR_STOV1_Sub047] (Eterna round: R97, puzzle: Sensor, turn-off variant 1)
12.3

----------
# Tested on: K4 kissing-loop RNA reporter;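 note: bound reporter read as fluorescence of individual clusters on recovered sequencing chips by microscopy, with normalized cluster intensities fitted with a binding model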
# MEASUREMENT_PROTOCOL: apparent KD of K4 kissing-loop reporter; higher = weaker reporter binding
# CONDITION_NOTES: Eterna round: R107; input ligand: tryptophan 2.4 mM
QUANTITY: apparent KD of K4 kissing-loop reporter (µM)
Respond with the bare value in µM.

Identify the reported apparent KD of K4 kissing-loop reporter for the following entry. GCAUAGGCCCAUCGGAAUUCGAGACCAGCACGAGGACCGGUACGGCCGCCACUCGUGCAGUGAUGUUGCACGAUUGGGAAACCGC [Beanveceti]
0.111

Identify the reported apparent KD of K4 kissing-loop reporter for the following entry. CUAUGGAAACAUAGUAAUCGGGAAACCGAUACCAGUAUGGAAACAUACCCUUGGCAGCGGAAUGAUUAAACGGAGUGAUGUUCCG [Theophylline A K4 17]
0.261

Identify the reported apparent KD of K4 kissing-loop reporter for the following entry. GACAUCUAUCGCCGAUAGUGUUUAUCUUGGGAGGAUAUGUCAGCGGACAGAAGGCCCAGUGAUGUUGGGUAGAUGACCGUUGCCU [Orerditi]
0.128

Identify the reported apparent KD of K4 kissing-loop reporter for the following entry. AUAUCUAGAGUGAUGUUCUAGUAAGCUGAAGGAGCGGACGAAAGUCCAGGUAGGUCGCAGUGUUUUUACACCUCAUGUGUAGGAG [KL-SSArg-A7 #analogue]
0.13

Identify the reported apparent KD of K4 kissing-loop reporter for the following entry. UCCUAUACCCUUCCCGGACGCCGUGGAGAUACCAGCCACGUAGCGGGCCCUUGGCAGCUCGAGUGAUGUUCGAGAUCGUCAGGAU [Veteve]
0.135

Identify the reported apparent KD of K4 kissing-loop reporter for the following entry. GCAGUGAUGUUGCACGAGUAGGCUGGAGUACGAGGACCGGUACGGCCGCCACUCGUACGAAAGUCGCUAAUUUAUGGAAUGGUGA [#07 K4 Tryptophan A Same State]
0.467

----------
# System: MS2 coat protein
# MEASUREMENT_PROTOCOL: apparent KD of MS2 coat protein; designed switch direction (-1 OFF switch, 1 ON switch): -1; higher = weaker reporter binding
# CONDITION_NOTES: Eterna round: R95; input ligand: FMN 200 uM
QUANTITY: apparent KD of MS2 coat protein (nM)
Respond with the bare value in nM.

Identify the reported apparent KD of MS2 coat protein for the following entry. GAAUACAAGUAAAGAUCCUACAUGAGGAUCACCCAUGUGCUCGUCUUGUAAAGUACUAUCACGAAAGUGAUAGUACA [Mat - Sensor v3 - turn-off var 1 - Eli Mod - D88] (puzzle: Sensor v3, turn-off variant 1)
53.8

Identify the reported apparent KD of MS2 coat protein for the following entry. AAUAACAAGCAGGUCCUAAACAUGAGGAUCACCCAUGUGCUCGUCUUGUAAAGUACUAUCACGAAAGUGAUAGUACA [Sensor 3, v1 - 60] (puzzle: Sensor v3, turn-off variant 1)
26.8

Identify the reported apparent KD of MS2 coat protein for the following entry. CAGAAACAUGAGGAUCACCCAUGUGAGGAUAUGAAAAAGAAAAGAAAAGAAAGAAGAAUCAGAAGGCACAAAGA [salish99-ex1_r3_085] (puzzle: Exclusion 1)
31.3

Identify the reported apparent KD of MS2 coat protein for the following entry. GAUUAUGCAAGCUUUUGGGACAUGAGGAUCACCCAUGUUCGUCUUAUUGAUCUAGGUACGCUGACGUACCUAGAUCU [JL-sv1-2.32 Brourd mod] (puzzle: Sensor v3, turn-off variant 1)
18.1

Identify the reported apparent KD of MS2 coat protein for the following entry. CACAAGCUUUUUUGAUGCAUUUUAGUGGGUGUGGGUUGGACAUGAGGAUCACCCAUGUUUAUGAAGCUCGAUCUUUU [JR_SV3TOV2_Sub081] (puzzle: Sensor v3, turn-off variant 2)
92.7

----------
# Tested on: MS2 coat protein
# MEASUREMENT_PROTOCOL: apparent KD of MS2 coat protein; higher = weaker reporter binding
# CONDITION_NOTES: Eterna round: R107; input ligand: theophylline 20 uM
QUANTITY: apparent KD of MS2 coat protein

Identify the reported apparent KD of MS2 coat protein for the following entry. AAAGAUCGGAAACGAUCGGCGGCUUGGGCGCGAGGACCGGUACGGCCGCCACUCGGGAAACAUGAGGAUCACCCAUGUUGCUUCU [ETA NP+V+V2 #16]
12.5 nM

Identify the reported apparent KD of MS2 coat protein for the following entry. UGAUGGAACGGAAGGAGCGUGUAAGAACAAGAACAUGAGGAUCACCCAUGUAUUAAUUUAACACAGGUAGGUCGCCGAGUUAUUG [11.F]
42.1 nM

Identify the reported apparent KD of MS2 coat protein for the following entry. UCGUAGCUAGGAAGGAGCGCAUACUUCACAUGAGGAUCACCCAUGUCGAGACGUGAGUCAGUGCAGGUAGGUCGCCUAGCUAUGA [Same State - Arginine B (Freestyle 26)]
22.3 nM

Identify the reported apparent KD of MS2 coat protein for the following entry. UUAUUUAUAGGGUAUAUCAGAUUAACUGAAGGAGCGUGGUAAUUCACAGGUAGGUCGCAGAUGGAACAUGAGGAUCACCCAUGUU [JR_ExcArginiA_Sub015]
28.5 nM

Identify the reported apparent KD of MS2 coat protein for the following entry. GAACAUAUGGAUACUAUUAUGAGCACAGAAGGAGCGAGCGGAAGCUCAGGUAGGUCGCUGGGUAACAUGAGGAUCACCCAUGUUG [XArg-A sub1]
24.7 nM

Identify the reported apparent KD of MS2 coat protein for the following entry. AAACGUUGCUGCGAUACCAGACAUGAGGAUCACCCAUGUACCGAGGUACCCGAAAGGAAUGUCCCUUGGCAGCGCAGCAACGAAA [MAT - Exclusion Theophlline B - Mod of Eli - D24]
15.3 nM

Identify the reported apparent KD of MS2 coat protein for the following entry. GGUUGGUUUAUAUAUAGAUUGAUUACUGAAGGAGCGGGAAAUAACCCAGGUAGGUCGCAGAGAUCCACAUGAGGAUCACCCAUGU [!0.I]
50.6 nM

Identify the reported apparent KD of MS2 coat protein for the following entry. UACCGAUACGGAAGGAGCGUAGAAGUAGUACAUGAGGAUCACCCAUGUAUGGGUAAUUUCGUACAGGUAGGUCGCCGUAUCGGUA [SSAB NP+V+V2 #23]
38.3 nM

Identify the reported apparent KD of MS2 coat protein for the following entry. AGACAUGAGGAUCACCCAUGUAGUACGGAUACCAGAUCCAGAUGCGUCCCUUGGCAGCUGUAGUACAGCGUUACGUCGCUCAUAG [Exclusion - Theophylline A (Freestyle 26)]
48.1 nM

Identify the reported apparent KD of MS2 coat protein for the following entry. GGUGACUGCAUGUGGAAUUAAGGUAGGGAAGGAGCGCGGUAAGACGCAGGUAGGUCGCCCUACAUGAGGAUCACCCAUGUGGUGU [Beenmaer]
135 nM

Identify the reported apparent KD of MS2 coat protein for the following entry. ACAUGAGGAUCACCCAUGUACAUAAGGGAAGGAGCGCGGUGAAACGCAGGUAGGUCGCCCAUAAUAACAAUAAAUAAAUUCAUGU [LeftA1]
21 nM

Identify the reported apparent KD of MS2 coat protein for the following entry. GGUGGCGUGACGGAUACCAGCCACCACCGUUAGACCACAUGAGGAUCACCCAUGUUGGGUGGCCCUUGGCAGCUGUCGUGCGGCG [#1 Same State - Theophylline B Attempt #18 (HarryS)]
250 nM
